- Test system: TYK2(JH2domain-pseudokinase)
- TEST PARAMETERS: concentration: 1 μM, replicates: in singlicate; n = 1;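 also: KINOMEscan kinase panel screen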
# maps each entry to its %Inh
MEASUREMENT KIND: %Inh (%)

[[record]]
substance_smiles = "CS(=O)(=O)CCNCc1nc(-c2ccc3ncnc(Nc4ccc(OCc5cccc(F)c5)c(Cl)c4)c3c2)cs1.Cl"
units_symbol = "%"
result = 16

[[record]]
substance_smiles = "CCc1nc(-c2cccc(C)c2)c(-c2ccnc(NC(=O)c3ccccc3)c2)s1"
units_symbol = "%"
result = 17

[[record]]
substance_smiles = "Cn1ccc2ncnc(Nc3ccc(Oc4cccc(Cl)c4)c(Cl)c3)c21"
units_symbol = "%"
result = 4

[[record]]
substance_smiles = "COc1cc2ncnc(Nc3ccc(OCc4ccccc4Br)c(Cl)c3)c2cc1OC.Cl"
units_symbol = "%"
result = 47


----------
# maps each entry to its %Inh
- System: FYN
- TEST PARAMETERS: concentration: 1 μM, replicates: in singlicate; n = 1
MEASUREMENT KIND: %Inh (%)

[[record]]
compound = "Nc1n[nH]c2nnc(-c3ccccc3)cc12 [SB-517389]"
result = 28

[[record]]
compound = "CC(=O)Nc1n[nH]c2ncc(-c3ccccc3)cc12 [SB-548492]"
result = 0

[[record]]
compound = "Cl.c1ccc(Cn2ccc3cc(Nc4ncnc5ccccc45)ccc32)cc1 [GW275568]"
result = 25

[[record]]
compound = "COc1ccc(Nc2nccc(N3CCC(NC(=O)c4cccc(NC(C)=O)c4)C3)n2)cc1 (stereo not shown) [GSK1379732]"
result = 0

[[record]]
compound = "O=c1cc(N2CCOCC2)nc2n(Cc3cccc(Cl)c3)ccn12 [GSK2296823]"
result = 0

[[record]]
compound = "Fc1cccc(COc2ccc(Nc3ncnc4nn5ccccc5c34)cc2Cl)c1 [GW689066]"
result = 0

[[record]]
compound = "Clc1ccc(-c2cc(-c3c[nH]nc3-c3ccccn3)ccn2)cc1 [GW681251]"
result = 10

[[record]]
compound = "COc1ccc(-c2oc3ncnc(N)c3c2-c2ccc(OC)cc2)cc1 [SB-589132]"
result = 46

[[record]]
compound = "CNc1nccc(-c2c(-c3ccc(F)cc3)ncn2CCCN2CCOCC2)n1 [SB-222516]"
result = 0

[[record]]
compound = "O=C(Nc1ccccc1F)NC1CCN(c2ccnc(Nc3ccc(F)cc3)n2)C1 (stereo not shown) [GSK1379722]"
result = 0


----------
- System: PAK1
- TEST PARAMETERS: concentration: 1 μM, replicates: in singlicate; n = 1
MEASUREMENT KIND: %Inh

[[record]]
substance_smiles = "CSc1ccc(NC2=C(c3ccccc3Cl)C(=O)NC2=O)cc1"
result = "0%"

[[record]]
substance_smiles = "CS(=O)(=O)CCNCc1nc(-c2ccc3ncnc(Nc4ccc(OCc5cccc(F)c5)c(Cl)c4)c3c2)cs1.Cl"
result = "19%"

[[record]]
substance_smiles = "Nc1nccc2scc(-c3ccc4c(c3)CCN4C(=O)Cc3cc(F)ccc3F)c12"
result = "1%"

[[record]]
substance_smiles = "O=C(c1ccc(-c2cc(-c3c[nH]nc3-c3ccccn3)ccn2)cc1)N1CCCC1"
result = "8%"

[[record]]
substance_smiles = "Fc1ccc(-c2ncn(CCCNCc3ccccc3)c2-c2ccncc2)cc1"
result = "30%"


These data points were gathered from paper PMC5540273.
